Numbers sourced from ChEMBL document CHEMBL1201862.

Test system: CAKI-1
Assay: NCI tumour cell line growth inhibition, 48 h
The source made the active and inactive calls. Rule as the data show it: active = GI50 up to about 1.1 µM and inactive = higher.
Assign a class; possible classes are T for active, F for inactive

For orientation, consider the following solved cases.
                                   compound  class_assignment
0      COc1ccc(OC/C(N)=N/NC(=O)c2ccncc2)cc1                 F
1  CCOC(=O)c1nc2c(nc1C(=O)OCC)C(=O)c1ccccc1C2=O                 T
2  CCCCC(C(=O)NCCNC(=O)CCC(=O)N(C)O)C(=O)NCCNC(=O)CCC(=O)N(C)O                 F

Q: I'd appreciate the recorded outcome for CC(C)(O)C1CC[C@]2(C)[C@H]3CC[C@@H]4[C@@]5(C)CCCC(C)(C)[C@@H]5CC[C@@]4(C)[C@]3(C)CC[C@@H]12 (some centres undefined) from this test.
A: F

Q: Recorded call for `COC(=O)NC(=O)c1cn(C2CCCCC2)c(=O)[nH]c1=O` ?
A: F

Q: I would be grateful if you could indicate the recorded call for `O=C1N[C@@H]2CCC[C@@H]2[C@@H]1c1ccc(Cl)cc1` .
A: F

Q: Please let me know the test result on file for CC(=O)c1ccccc1NC(=O)C(=O)C(C(=O)c1ccc2ccccc2c1)C1OC(=O)c2ccccc21 (centres undefined) .
A: F

###

Tested on: T47D
Experiment: NCI tumour cell line growth inhibition, 48 h
Calls of active or inactive are those of the source. Cut-off read from the data, not from the text of the source: active = GI50 up to about 1.1 µM and inactive = higher.
Outcome field: choose from active, inactive

These recorded examples may help you get a feel for the data.
                                   compound  test_system  class_assignment
0  NCCN(CCN(C(=O)Nc1ccccc1)c1ccccc1)C(=O)Nc1ccccc1         T47D          inactive
1       CC(C)(C)C(=O)Nc1cccc(-c2ccc[nH]2)n1         T47D          inactive
2  C/C(=N/NC(=S)Nc1ccc(Cl)cc1)c1cccc(/C(C)=N\NC(=S)Nc2ccc(Cl)cc2)n1         T47D          inactive
3  COC(=O)c1ccccc1C1CN=NC12Cc1cc(C)c(C)cc1C2=O (stereo unspecified)         T47D          inactive
4  Cc1ccc(/N=C2\C(=O)C3=C(OC(C)(C)CC3)c3ccccc32)cc1         T47D            active

Q: Hey, what did the test say about `O=[N+]([O-])/C=C/c1cc(Cl)c(/C=C/[N+](=O)[O-])cc1Cl` ?
A: inactive

###

Test system: OVCAR-4
Experiment: NCI tumour cell line growth inhibition, 48 h
The source made the active and inactive calls. Cut-off read from the data, not from the text of the source: active = GI50 up to about 1.1 µM and inactive = higher.
Quantity name: GI50

// solved cases for GI50 follow
Compound	GI50
CCOc1cc2ccc3c4cc(OC)c(OC)cc4cnc3c2cc1OCC	> 100 µM (inactive)
Cc1cc2cc3c(Cl)c(CCCl)c(C)nc3cc2c(Cl)c1CCCl	18.1 µM (inactive)

Q: Quick check: GI50 of `Cc1cc2oc3c(ccc(=O)n3C)c(=O)c2c(C)c1Cl` ?
A: > 100 µM (inactive)

Q: Param item = O=C1NC(c2ccc3ccccc3c2)Nc2ccccc21 (stereo not given) ; retrieve measured GI50.
A: 58.5 µM (inactive)

Q: Which GI50 value is on record for `c1ccc(NC2(c3nnnn3C3CCCCC3)CCNCC2)cc1` ?
A: 49.8 µM (inactive)

Q: I'd like to know its GI50. The compound in question is `O=C(O)COc1cc(-c2ccccc2)nc2ccccc12`
A: 77.1 µM (inactive)

Q: I have this compound here, `Clc1ccc2c(NCCCCCCNc3ccnc4cc(Cl)ccc34)ccnc2c1` , and I need its recorded GI50.
A: 2.54 µM (inactive)

###

Tested on: OVCAR-4
Assay: NCI tumour cell line growth inhibition, 48 h
Active and inactive are the calls of the source. No stated cut-off is given here; in the data, active = GI50 up to about 1.1 µM and inactive = higher.
Thanks in advance; please answer with one of these: active, inactive

>>> print(df.to_string())
                                   molecule  class_assignment
0        CCOC(=O)c1oc2c(OC)cc(Cl)c3c2c1CCC3          inactive
1  C/C(=N\NC(N)=O)c1sc(-c2nc(C)c(/C(C)=N/NC(N)=O)s2)nc1C          inactive
2  c1ccc([P+](Cc2ccc(C[P+](c3ccccc3)(c3ccccc3)c3ccccc3)s2)(c2ccccc2)c2ccccc2)cc1          inactive

Q: # fetch the recorded call for Cc1ccc(-n2cc(-c3ccc(Cl)cc3)c3c2N=CN2N=C(c4cccs4)NC32)cc1 (configuration not stated) here
A: inactive

Q: Field: outcome | Entry: COc1ccc(C(C)NNC(=O)c2cc[n+]([BH2-]C#N)cc2)cc1OC (configuration not stated)
A: inactive

Q: What did the test return for C[C@]12Cc3conc3C(O)=C1CC[C@@H]1C2CC[C@@]2(C)C1CC[C@@H]2O (some centres not stated) ?
A: inactive

Q: What is the recorded call for this molecule in the test? `COc1cc(Cc2nccc3cc(OC)c(OC)cc23)c(C(C)=O)cc1OC`
A: inactive

Q: # lookup: test call for CC(=O)OC1CCC2OOC1O2 (configuration not stated)
A: inactive

Q: I'd appreciate the recorded outcome for `CCCCNC1=C2C(=O)NN=C2CO1` from this test.
A: inactive

Q: Identify the outcome logged in this assay for the molecule shown: CC(CCC(=O)O)c1ccc(Br)cc1 (configuration not stated)
A: inactive

Q: Which result was noted for this molecule in the test: `Cc1ccc(S(=O)(=O)N2CCCSCC2)cc1`
A: inactive

Q: Kindly provide the recorded test outcome for the following molecule: CC(=O)O[C@]1(C)CCC2C(C)C(=O)OC2C2C(C)[C@@H](O)CC21 (some centres not stated)
A: inactive

Q: Record lookup: outcome of this test for `CC(C)c1cc(=O)[nH]c2cc(N)ccc12` ?
A: inactive

Q: Recorded test call requested for CCCCC1=CC1(C#N)[N+](=O)[O-] (configuration not stated)
A: inactive

Q: For this molecule, state the assay outcome: `O=[N+]([O-])c1ccc2c(/N=N/c3c(O)ccc4ccccc34)c(O)cc(S(=O)(=O)O)c2c1`
A: inactive

Q: State the result this test recorded for `CCc1c(-c2ccccc2)[nH]c2ccccc2c1=O` .
A: inactive

Q: Dear colleague, could you share the recorded outcome for `O=C(O)c1cnc2[nH]ccn2c1=O` when you have a moment?
A: inactive

###

System: UACC-62
Test: NCI tumour cell line growth inhibition, 48 h
The source made the active and inactive calls. Cut-off read from the data, not from the text of the source: active = GI50 up to about 1.1 µM and inactive = higher.
Log the outcome using a class from active, inactive

Molecule	Class assignment
O=C(OCCOCBr)c1ccccc1	inactive
CCCCCCOC(=O)C(N)Cc1ccc(OC)cc1 (configuration not stated)	inactive
N=C(NNS(=O)(=O)c1ccccc1)Oc1ccc(Cl)cc1	inactive
N=C(N)Nc1ccc(CC(N)C(=O)NCC(=O)C(CC(=O)O)c2ncc(NC(=O)C(F)(F)F)o2)cc1 (configuration not stated)	inactive

Q: Which outcome was assigned to `COc1ccc([Se][Se]c2ccc(OC)cc2OC)c(OC)c1` in this test?
A: inactive

Q: I'd appreciate the recorded outcome for `CCCCNC1=C2C(=O)NN=C2CO1` from this test.
A: inactive

Q: I would be grateful if you could indicate the recorded call for `Cc1nc2[nH]ncn2c(=O)c1CCO` .
A: inactive

Q: Lab log entry: CC(C)(C)C(=O)OCC1OC(N=[N+]=[N-])C(OC(=O)C(C)(C)C)C(OC(=O)C(C)(C)C)C1OC(=O)C(C)(C)C (configuration not stated) — outcome as called in the assay?
A: inactive

Q: # outcome recorded in this test, key = `Cc1cc2oc3c(ccc(=O)n3C)c(=O)c2c(C)c1Cl`
A: inactive

Q: // outcome(item) with item = Cc1ccc(C)c2c1CC(Cc1ccccc1C(=O)O)C2=O (configuration not stated)
A: inactive

Q: Assay outcome for `Clc1ccc2c(NCCCCCCNc3ccnc4cc(Cl)ccc34)ccnc2c1` : what was it?
A: inactive

Q: Hi, sorry to bother you, what did the test record for `C=C[C@]1(C)C[C@@H](OC(=O)CO)[C@@]2(C)[C@H](C)CC[C@]3(CCC(=O)[C@H]32)[C@@H](C)[C@@H]1O` ?
A: inactive

Q: Tell me the recorded outcome of this test for `CCCC[C@H](CCc1ccccc1)N(C(=O)OC)N1CCC[C@H]1COC` .
A: inactive

###

Items are presented alongside their recorded GI50.
Test system: SF-268
Experiment: NCI tumour cell line growth inhibition, 48 h
Activity calls are given as the source filed them. No stated cut-off is given here; in the data, active = GI50 up to about 1.1 µM and inactive = higher.

>>> df
                                   compound        readout_value
0  CCN(CC)CC1CCCCN1CC(=O)N1c2ccc(Br)cc2C(=O)Nc2cccnc21 (stereo not given)  > 100 µM (inactive)
1  COC(=O)Cc1c([C@@H]2Nc3ccccc3[C@H]2CC(=O)OC)[nH]c2ccccc12   31.1 µM (inactive)
2  Brc1ccc2c(c1)-c1nc3nc4c(cc3cc1CC2)CCc1ccc(Br)cc1-4  > 100 µM (inactive)
3  CC(C)C(Nc1c2ccccc2[n+](C)c2ccccc12)C(=O)O (stereo not given)  > 100 µM (inactive)

Pending compound:
Q: What measured GI50 is associated with `O=C(CCC(=O)Nc1ccc(Cl)c(Cl)c1)Cc1nc2ccccc2o1` on SF-268?
A: > 100 µM (inactive)
